Origin of measurements: patent US10736883B2

- experimental target: APJ receptor (Homo sapiens (Human))
- Sequence (P35414 whole entry): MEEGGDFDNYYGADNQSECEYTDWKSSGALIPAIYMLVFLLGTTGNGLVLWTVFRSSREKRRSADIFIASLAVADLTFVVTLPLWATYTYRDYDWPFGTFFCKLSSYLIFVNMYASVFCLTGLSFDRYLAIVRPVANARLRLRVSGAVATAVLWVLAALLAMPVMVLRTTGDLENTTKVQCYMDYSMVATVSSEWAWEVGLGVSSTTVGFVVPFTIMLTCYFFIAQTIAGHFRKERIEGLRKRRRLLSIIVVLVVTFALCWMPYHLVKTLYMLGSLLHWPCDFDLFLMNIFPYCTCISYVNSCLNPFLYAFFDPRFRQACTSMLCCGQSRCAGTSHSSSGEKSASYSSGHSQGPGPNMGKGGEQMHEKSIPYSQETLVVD
- assay procedure: [35S]GTPγS binding assay on membranes from CHO cells stably expressing human APJ receptor
- measurement parameters: membranes of CHO cells stably expressing human APJ receptor, means of several independent experiments, read-out: Activity hAPJ SPA EC50 IP
property measured: EC50 (nM)
Write down the numeric answer in nM and omit the unit.

// solved cases for EC50 follow
Lookup: Assign EC50 to the following record: COc1cccc(OC)c1-n1c(NS(=O)(=O)CCN2C(=O)N(C)CC[C@@H]2C)nnc1-c1ccc(C)o1 (single isomer, unassigned) [Example 164.0]
Found: 0.74

Lookup: Annotate the molecule `COc1c(Br)cc(Br)c(OC)c1-n1c(NS(=O)(=O)[C@@H](C)[C@H](C)c2ncc(F)cn2)nnc1-c1ccc(C)o1` with its measured EC50.
Found: 110

Then this molecule:
Lookup: Item `COc1cccc(OC)c1-n1c(NS(=O)(=O)CCc2ccc(C#N)cn2)nnc1-c1ccco1` : provide EC50
Found: 3.5
